All figures here come from patent US10479793B2.

# System: IFNα stimulated Kit225 T cells with a stably-integrated STAT-dependent luciferase reporter
# ASSAY PROTOCOL: Kit225 T cell assay, IFNα stimulated STAT-dependent luciferase reporter
# Assay type: cell-based, human
# EXPERIMENTAL PARAMETERS: KIT225; 200 U/mL human recombinant IFNα, 5-6 hours, luciferase; read-out: IFNa Kit225 Reporter, (IC50)
MEASURED PARAMETER: pIC50
Convention used: pIC50 is expressed as -log10 of the molar concentration.

[Q] Please report the recorded pIC50 for CNc1nc(Nc2cc(C)cc(F)c2)nn2c(C(N)=O)cnc12 [Example 73] .
[A] 6.85

[Q] GET /values?readout=pIC50&item= Cc1cc(C)cc(Nc2cc(N)c3ncc(C(N)=O)n3n2)c1 [Example 67]
[A] 6.14

[Q] Fill in the blank: the reported pIC50 of Cc1cc(F)cc(Nc2cc(NCC(F)(F)F)c3ncc(C(N)=O)n3n2)c1 [Example 59] is ____.
[A] 4.90

[Q] Any idea what pIC50 was measured for CNc1cc(Nc2cc(F)cc(F)c2)nn2c(C(=O)NCC(C)(C)CO)cnc12 [Example 15] ?
[A] 6.40

[Q] pIC50 lookup needed for CNc1cc(Nc2cccnc2-n2cccn2)nn2c(C(=O)NCCO)cnc12 [Example 30] , thanks.
[A] 6.68

[Q] Data request, read-out pIC50, for CNc1cc(Nc2cc(F)cc(F)c2F)nn2c(C(=O)NCC(C)(C)O)cnc12 [Example 14]
[A] 6.59

[Q] Give the measured pIC50 of CNc1cc(Nc2cc(F)ccc2F)nn2c(C(N)=O)cnc12 [Example 6] .
[A] 7.05

[Q] Reported pIC50 for CNc1cc(Nc2cccc(-n3cccn3)n2)nn2c(C(=O)NC3CC3)cnc12 [Example 85] : what is it?
[A] 7.52

[Q] # lookup: pIC50 of CNc1cc(Nc2cccnc2-n2nc(C)cc2C(F)(F)F)nn2c(C(=O)NC3CC3)cnc12 [Example 100]
[A] 4.90

[Q] Report pIC50 for O=C(NC1CCC1)c1cnc2c(NC3CC3)cc(Nc3cc(F)cc(F)c3F)nn12 [Example 44] please.
[A] 5.86

[Q] Item under review: COCCNc1cc(Nc2cc(C)cc(C)c2)nn2c(C(N)=O)cnc12 [Example 56] . Reported pIC50?
[A] 5.75

[Q] Dear colleague, I am looking for the recorded pIC50 of the following compound: Cc1cc(C)cc(Nc2cc(NCC(C)C)c3ncc(C(N)=O)n3n2)c1 [Example 53]
[A] 4.91

[Q] Entry CNc1cc(N2CCc3ccccc32)nn2c(C(=O)NCC(C)(C)O)cnc12 [Example 11] has what pIC50?
[A] 5.64

[Q] State the recorded pIC50 for this entry: N#Cc1cc(Nc2cc(NC3CC3)c3ncc(C(=O)NC4CC4)n3n2)cc(C(F)(F)F)c1 [Example 33]
[A] 4.90

[Q] If you can, please state the reported pIC50 value of CNc1cc(Nc2cc(F)cc(F)c2OC)nn2c(C(=O)NCC(C)(C)O)cnc12 [Example 81] .
[A] 6.64

[Q] Form field: reported pIC50 of Cc1cc(F)cc(Nc2nc(NC3CC3)c3ncc(C(N)=O)n3n2)c1 [Example 71]
[A] 4.90

[Q] Given the entry CNc1cc(Nc2cc(F)cc(F)c2OC)nn2c(C(=O)NCC(C)(C)C)cnc12 [Example 16] , report its measured pIC50.
[A] 7.05

[Q] Please give the measured pIC50 for this compound: NC(=O)c1cnc2c(NC3CC3)cc(Nc3cccc(F)c3)nn12 [Example 47]
[A] 5.95
